The compounds listed here are annotated with their MIC Coagulase Negative Staphylococcus (GC 4548).
Tested on: Staphylococcus sp.
assay.overview: In vitro antibacterial evaluation: minimum inhibitory concentration (MIC), broth dilution method
Format: cell-based
test.settings: strain GC 4548; broth dilution, 18 hours at 35° C.
Excerpt: […]
quantity.measured: MIC Coagulase Negative Staphylococcus (GC 4548)

1) CCOc1cc(C2OCC3OC(OC4C(CO)OC(Oc5ccc(CC6NC(=O)C(C(C)c7ccccc7)NC(=O)CNC(=O)C(CO)NC(=O)C(C(O)C7CNC(=N)N7C7OC(CO)C(O)C(O)C7O)NC(=O)C(C(O)C7CNC(=N)N7)NC6=O)cc5)C(O)C4O)C(O)C(O)C3O2)ccc1OC (stereo not shown) = 8 µg/mL
2) CC(c1ccccc1)C1NC(=O)CNC(=O)C(CO)NC(=O)C(C(O)C2CNC(=N)N2C2OC(CO)C(O)C(O)C2O)NC(=O)C(C(O)C2CNC(=N)N2)NC(=O)C(Cc2ccc(OC3OC(CO)C(OC4OC5COC(C6CCCC6)OC5C(O)C4O)C(O)C3O)cc2)NC1=O (stereo not shown) = 1 µg/mL
3) CC(c1ccccc1)C1NC(=O)CNC(=O)C(CO)NC(=O)C(C(O)C2CNC(=N)N2C2OC(CO)C(O)C(O)C2O)NC(=O)C(C(O)C2CNC(=N)N2)NC(=O)C(Cc2ccc(OC3OC(COC(=O)OCc4ccccc4)C(OC4OC(CO)C(O)C(O)C4O)C(O)C3O)cc2)NC1=O (stereo not shown) = 2 µg/mL
4) CCCc1ccc(C2OCC3OC(OC4C(CO)OC(Oc5ccc(CC6NC(=O)C(C(C)c7ccccc7)NC(=O)CNC(=O)C(CO)NC(=O)C(C(O)C7CNC(=N)N7C7OC(CO)C(O)C(O)C7O)NC(=O)C(C(O)C7CNC(=N)N7)NC6=O)cc5)C(O)C4O)C(O)C(O)C3O2)cc1 (stereo not shown) = <0.5 µg/mL
5) CSc1ccc(C2OCC3OC(OC4C(CO)OC(Oc5ccc(CC6NC(=O)C(C(C)c7ccccc7)NC(=O)CNC(=O)C(CO)NC(=O)C(C(O)C7CNC(=N)N7C7OC(CO)C(O)C(O)C7O)NC(=O)C(C(O)C7CNC(=N)N7)NC6=O)cc5)C(O)C4O)C(O)C(O)C3O2)cc1 (stereo not shown) = 0.25 µg/mL
6) CCC(CC)C1OCC2OC(OC3C(CO)OC(Oc4ccc(CC5NC(=O)C(C(C)c6ccccc6)NC(=O)CNC(=O)C(CO)NC(=O)C(C(O)C6CNC(=N)N6C6OC(CO)C(O)C(O)C6O)NC(=O)C(C(O)C6CNC(=N)N6)NC5=O)cc4)C(O)C3O)C(O)C(O)C2O1 (stereo not shown) = 1 µg/mL
7) CC(c1ccccc1)C1NC(=O)CNC(=O)C(CO)NC(=O)C(C(O)C2CNC(=N)N2C2OC(CO)C(O)C(O)C2O)NC(=O)C(C(O)C2CNC(=N)N2)NC(=O)C(Cc2ccc(OC3OC(CO)C(OC4OC5COC(c6ccc7ccccc7c6)OC5C(O)C4O)C(O)C3O)cc2)NC1=O (stereo not shown) = <0.5 µg/mL
8) CC(c1ccccc1)C1NC(=O)CNC(=O)C(CO)NC(=O)C(C(O)C2CNC(=N)N2C2OC(CO)C(O)C(O)C2O)NC(=O)C(C(O)C2CNC(=N)N2)NC(=O)C(Cc2ccc(OC3OC(CO)C(OC4OC5COC(c6ccc(C(=O)O)cc6)OC5C(O)C4O)C(O)C3O)cc2)NC1=O (stereo not shown) = >64 µg/mL
9) CC(c1ccccc1)C1NC(=O)CNC(=O)C(CO)NC(=O)C(C(O)C2CNC(=N)N2C2OC(CO)C(O)C(O)C2O)NC(=O)C(C(O)C2CNC(=N)N2)NC(=O)C(Cc2ccc(OC3OC(CO)C(OC4OC5COC(c6ccc(-c7ccsc7)cc6)OC5C(O)C4O)C(O)C3O)cc2)NC1=O (stereo not shown) = 1 µg/mL
10) CC(c1ccccc1)C1NC(=O)CNC(=O)C(CO)NC(=O)C(C(O)C2CNC(=N)N2C2OC(CO)C(O)C(O)C2O)NC(=O)C(C(O)C2CNC(=NC(=O)C(C)(C)C)N2)NC(=O)C(Cc2ccc(OC3OC(CO)C(OC4OC(CO)C(O)C(O)C4O)C(O)C3O)cc2)NC1=O (stereo not shown) = <0.5 to 1 µg/mL
11) CC(c1ccccc1)C1NC(=O)CNC(=O)C(CO)NC(=O)C(C(O)C2CNC(=N)N2C2OC(CO)C(O)C(O)C2O)NC(=O)C(C(O)C2CNC(=N)N2)NC(=O)C(Cc2ccc(OC3OC(CO)C(OC4OC5COC(c6ccsc6)OC5C(O)C4O)C(O)C3O)cc2)NC1=O (stereo not shown) = <0.5 µg/mL
12) CCOc1cc(C2OCC3OC(OC4C(CO)OC(Oc5ccc(CC6NC(=O)C(C(C)c7ccccc7)NC(=O)CNC(=O)C(CO)NC(=O)C(C(O)C7CNC(=N)N7C7OC(CO)C(O)C(O)C7O)NC(=O)C(C(O)C7CNC(=N)N7)NC6=O)cc5)C(O)C4O)C(O)C(O)C3O2)ccc1[N+](=O)[O-] (stereo not shown) = 8 µg/mL
13) Cc1cc(C2OCC3OC(OC4C(CO)OC(Oc5ccc(CC6NC(=O)C(C(C)c7ccccc7)NC(=O)CNC(=O)C(CO)NC(=O)C(C(O)C7CNC(=N)N7C7OC(CO)C(O)C(O)C7O)NC(=O)C(C(O)C7CNC(=N)N7)NC6=O)cc5)C(O)C4O)C(O)C(O)C3O2)ccc1[N+](=O)[O-] (stereo not shown) = 4 µg/mL

Origin of values: patent US8247211B2
